target: CFTR G551D mutant (Homo sapiens, UniProt P13569, G551D); construct: expressed in transfected cells; host or cells: HEK293 (reverse transfection with plasmids); experiment: YFP-halide influx assay for the CFTR-G551D mutation (HEK293 cells); type: cell-based; settings: HEK293 cells expressing CFTR G551D and YFP reporter; forskolin 10.67 μM; read-out: EC50 measured by YFP-halide influx assay for the CFTR-G551D
Sequence (P13569 whole entry G551D): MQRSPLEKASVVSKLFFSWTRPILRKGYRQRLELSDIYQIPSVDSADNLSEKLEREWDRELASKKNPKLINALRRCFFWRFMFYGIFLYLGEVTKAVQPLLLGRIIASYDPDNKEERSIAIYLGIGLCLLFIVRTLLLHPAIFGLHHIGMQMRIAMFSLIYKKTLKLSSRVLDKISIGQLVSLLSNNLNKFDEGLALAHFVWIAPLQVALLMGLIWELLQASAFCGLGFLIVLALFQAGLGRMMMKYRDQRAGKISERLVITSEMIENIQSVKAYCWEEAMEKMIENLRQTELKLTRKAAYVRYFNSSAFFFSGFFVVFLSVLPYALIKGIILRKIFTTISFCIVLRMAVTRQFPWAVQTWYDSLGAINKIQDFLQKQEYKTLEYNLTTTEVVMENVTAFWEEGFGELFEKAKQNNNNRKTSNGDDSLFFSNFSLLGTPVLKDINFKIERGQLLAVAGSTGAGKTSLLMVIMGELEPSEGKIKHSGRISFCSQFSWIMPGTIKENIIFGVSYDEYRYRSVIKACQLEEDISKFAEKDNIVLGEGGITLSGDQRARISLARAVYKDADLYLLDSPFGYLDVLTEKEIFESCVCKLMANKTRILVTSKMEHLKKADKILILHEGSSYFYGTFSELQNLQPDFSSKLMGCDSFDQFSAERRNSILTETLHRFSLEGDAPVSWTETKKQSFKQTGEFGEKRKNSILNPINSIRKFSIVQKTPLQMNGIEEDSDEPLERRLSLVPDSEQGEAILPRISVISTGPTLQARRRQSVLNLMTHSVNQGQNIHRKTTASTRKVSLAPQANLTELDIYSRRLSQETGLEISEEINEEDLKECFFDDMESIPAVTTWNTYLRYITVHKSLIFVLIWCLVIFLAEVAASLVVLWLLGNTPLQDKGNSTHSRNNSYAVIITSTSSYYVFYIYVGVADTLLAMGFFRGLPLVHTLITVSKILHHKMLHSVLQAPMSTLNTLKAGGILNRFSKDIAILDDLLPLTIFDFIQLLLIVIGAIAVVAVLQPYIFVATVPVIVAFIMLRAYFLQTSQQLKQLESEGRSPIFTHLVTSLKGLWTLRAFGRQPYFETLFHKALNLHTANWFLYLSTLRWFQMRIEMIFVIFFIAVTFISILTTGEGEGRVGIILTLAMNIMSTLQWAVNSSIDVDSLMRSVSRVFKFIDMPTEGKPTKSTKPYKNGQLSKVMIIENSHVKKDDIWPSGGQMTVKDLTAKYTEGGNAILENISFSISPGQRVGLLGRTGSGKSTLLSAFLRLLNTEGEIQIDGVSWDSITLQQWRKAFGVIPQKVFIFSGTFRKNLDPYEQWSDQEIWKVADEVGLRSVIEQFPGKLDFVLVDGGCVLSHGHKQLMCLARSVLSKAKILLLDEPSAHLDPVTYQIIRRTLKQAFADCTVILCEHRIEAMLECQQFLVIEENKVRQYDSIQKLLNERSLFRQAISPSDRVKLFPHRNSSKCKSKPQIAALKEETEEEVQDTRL
pEC50: −log10 of the molar value.
// reported pEC50 per item

{"COMPOUND": "Cc1ccc(C(=O)Nc2sc3c(c2C(N)=O)CC(C)(C)OC3(C)C)cn1 [Compound 143]", "ASSAY_SYSTEM": "CFTR G551D mutant (Homo sapiens, UniProt P13569, G551D)", "pEC50": 5.57}
{"COMPOUND": "CC1(C)Cc2c(sc(NC(=O)c3ccccc3OC(F)F)c2C(N)=O)C(C)(C)O1 [Compound 113]", "ASSAY_SYSTEM": "CFTR G551D mutant (Homo sapiens, UniProt P13569, G551D)", "pEC50": 5.56}
{"COMPOUND": "CC1(C)Cc2c(sc(NC(=O)c3cccc(C(F)F)c3)c2C(N)=O)C(C)(C)O1 [Compound 122]", "ASSAY_SYSTEM": "CFTR G551D mutant (Homo sapiens, UniProt P13569, G551D)", "pEC50": 5.62}
{"COMPOUND": "COC(=O)C1(C(=O)Nc2sc3c(c2C(N)=O)CC(C)(C)OC3(C)C)CC1 [Compound 12]", "ASSAY_SYSTEM": "CFTR G551D mutant (Homo sapiens, UniProt P13569, G551D)", "pEC50": 5.48}
{"COMPOUND": "CC1(C)Cc2c(sc(NC(=O)c3ccc(F)cc3F)c2C(N)=O)C(C)(C)O1 [Compound 8]", "ASSAY_SYSTEM": "CFTR G551D mutant (Homo sapiens, UniProt P13569, G551D)", "pEC50": 6.51}
{"COMPOUND": "CC1(C)Cc2c(sc(NC(=O)c3nn(C(F)F)cc3Cl)c2C(N)=O)C(C)(C)O1 [Compound 116]", "ASSAY_SYSTEM": "CFTR G551D mutant (Homo sapiens, UniProt P13569, G551D)", "pEC50": 5.82}
{"COMPOUND": "CC1(C)Cc2c(sc(NC(=O)CC(O)C3CC3)c2C(N)=O)C(C)(C)O1 (centres unmarked) [Compound 68]", "ASSAY_SYSTEM": "CFTR G551D mutant (Homo sapiens, UniProt P13569, G551D)", "pEC50": 5.48}
{"COMPOUND": "CC1(C)Cc2c(sc(NC(=O)c3cc(C(F)(F)F)[nH]n3)c2C(N)=O)C(C)(C)O1 [Compound 15]", "ASSAY_SYSTEM": "CFTR G551D mutant (Homo sapiens, UniProt P13569, G551D)", "pEC50": 7.11}

meta.source: patent US9351955B2
